- Tested on: MFM-223
- measurement.protocol: normalised response (% of control), CellTiter-Glo; higher = more viable cells (100 = DMSO, 0 = benzethonium chloride kill control)
- assay.conditions: incubation time: 72 h
Below is a list of entries, each paired with its recorded normalised response value.
Just the number in %, nothing appended.

- compound: "Cn1c(CCCC(=O)O)nc2cc(N(CCCl)CCCl)ccc21 [Bendamustine] (10000 nM)"
  target.or.system: "MFM-223"
  normalised response (%): 106
- compound: "CNCc1ccc(-c2[nH]c3cc(F)cc4c3c2CCNC4=O)cc1 [Rucaparib] (10000 nM)"
  target.or.system: "MFM-223"
  normalised response (%): 91
- compound: "NC(=O)Nc1cc(-c2cccc(F)c2)sc1C(=O)N[C@H]1CCCNC1 [AZD7762] (1000 nM)"
  target.or.system: "MFM-223"
  normalised response (%): 64.2
- compound: "CC(C)Cn1cnc2c(N)nc3ccccc3c21 [Imiquimod] (2500 nM)"
  target.or.system: "MFM-223"
  normalised response (%): 103

# input for lookup
(Q) Identify measured normalised response associated with N#CCNC(=O)c1ccc(-c2ccnc(Nc3ccc(N4CCOCC4)cc3)n2)cc1 [Momelotinib] (10000 nM)
(A) 67.2

----------
- Test system: MDA-MB-436
- measurement.protocol: normalised response (% of control), CellTox Green; higher = less cell death (100 = DMSO, 0 = benzethonium chloride kill control)
- assay.conditions: incubation time: 72 h
quantity.measured: normalised response (%)
Just the number in %, nothing appended.

Consider the reported normalised response for these compounds:
- compound: "CC(C)Cn1cnc2c(N)nc3ccccc3c21 [Imiquimod] (250 nM)"
  normalised response, %: 107
- compound: "CCCCCCCCCCCCCCCCCCOP(=O)([O-])OC1CC[N+](C)(C)CC1 [Perifosine] (250 nM)"
  normalised response, %: 94.7
- compound: "C#Cc1cccc(Nc2ncnc3cc(OCCOC)c(OCCOC)cc23)c1 [Erlotinib] (1000 nM)"
  normalised response, %: 101
- compound: "COc1cc([C@@H]2c3cc4c(cc3[C@@H](O[C@@H]3O[C@@H]5CO[C@@H](C)O[C@H]5[C@H](O)[C@H]3O)[C@H]3COC(=O)[C@H]23)OCO4)cc(OC)c1O [Etoposide] (100 nM)"
  normalised response, %: 107
- compound: "CO[C@H]1/C=C\\C=C(/C)C(=O)NC2=CC(=O)C(NCCN(C)C)=C(C[C@@H](C)C[C@H](OC)[C@H](O)[C@@H](C)/C=C(\\C)[C@@H]1OC(N)=O)C2=O [Alvespimycin] (10 nM)"
  normalised response, %: 89.8

# input for lookup
(Q) Identify measured normalised response associated with COc1cc2ncnc(Nc3ccc(F)c(Cl)c3)c2cc1NC(=O)/C=C/CN1CCCCC1 [Dacomitinib] (10 nM)
(A) 103

----------
- Test system: MDA-MB-231
- measurement.protocol: normalised response (% of control), CellTiter-Glo; higher = more viable cells (100 = DMSO, 0 = benzethonium chloride kill control)
- assay.conditions: incubation time: 72 h
Below is a list of entries, each paired with its recorded normalised response value.
Just the number in %, nothing appended.

- molecule: "O=C1CCC(N2C(=O)c3ccccc3C2=O)C(=O)N1 (centres undefined) [Thalidomide] (1 nM)"
  quantity.measured: "normalised response"
  measured.value: 104
- molecule: "NC(=O)Nc1cc(-c2cccc(F)c2)sc1C(=O)N[C@H]1CCCNC1 [AZD7762] (1 nM)"
  quantity.measured: "normalised response"
  measured.value: 103
- molecule: "CS(=O)(=O)c1ccc(C2=C(c3ccccc3)C(=O)OC2)cc1 [Rofecoxib] (1000 nM)"
  quantity.measured: "normalised response"
  measured.value: 107
- molecule: "N.N.[Cl][Pt][Cl] [Cisplatin] (100 nM)"
  quantity.measured: "normalised response"
  measured.value: 98.7
- molecule: "COc1cc([C@@H]2c3cc4c(cc3[C@@H](O[C@@H]3O[C@@H]5CO[C@@H](C)O[C@H]5[C@H](O)[C@H]3O)[C@H]3COC(=O)[C@H]23)OCO4)cc(OC)c1O [Etoposide] (10 nM)"
  quantity.measured: "normalised response"
  measured.value: 105

(Q) Identify measured normalised response associated with CN(C)/N=N/c1[nH]cnc1C(N)=O [Dacarbazine] (10 nM)
(A) 104

(Q) Identify measured normalised response associated with CCC1(c2ccc(N)cc2)CCC(=O)NC1=O (centres undefined) [Aminoglutethimide] (1000 nM)
(A) 105

----------
Below is a list of entries, each paired with its recorded normalised viability value.
- Test system: CAL-85-1
- measurement.protocol: normalised viability (% of control), CellTiter-Blue; higher = more viable cells (about 100 = DMSO control)
- assay.conditions: incubation time: 72 h
Just the number in %, nothing appended.

- molecule: "Cc1ccc(C(=O)N(CCCN)[C@@H](c2oc3cc(Cl)ccc3c(=O)c2Cc2ccccc2)C(C)C)cc1 (100 nM)"
  quantity.unit: "%"
  normalised viability: 30.1
- molecule: "Cc1ccc(C(=O)Nc2ccc(CN3CCN(C)CC3)c(C(F)(F)F)c2)cc1C#Cc1cnc2cccnn12 [Ponatinib] (100 nM)"
  quantity.unit: "%"
  normalised viability: 89.3
- molecule: "CCC1(c2ccc(N)cc2)CCC(=O)NC1=O (centres undefined) [Aminoglutethimide] (1000 nM)"
  quantity.unit: "%"
  normalised viability: 95.2

(Q) Identify measured normalised viability associated with CNCc1ccc(-c2[nH]c3cc(F)cc4c3c2CCNC4=O)cc1 [Rucaparib] (1000 nM)
(A) 85.4

----------
- System: HDQ-P1
- measurement.protocol: normalised viability (% of control), CellTiter-Blue; higher = more viable cells (about 100 = DMSO control)
- assay.conditions: incubation time: 72 h
So basically: is normalised viability under 80%? Then Satisfied. Not under? Then Not satisfied.

Example cases with answers are listed next.
- molecule: "CC1(C)NC(=O)N(c2ccc([N+](=O)[O-])c(C(F)(F)F)c2)C1=O [Nilutamide] (10000 nM)"
  category: "Not satisfied"
- molecule: "CCN(CCCOc1ccc2c(Nc3cc(CC(=O)Nc4cccc(F)c4)[nH]n3)ncnc2c1)CCOP(=O)(O)O [Barasertib] (1000 nM)"
  category: "Not satisfied"
- molecule: "CCC1=C[C@@H]2CN(C1)Cc1c([nH]c3ccccc13)[C@@](C(=O)OC)(c1cc3c(cc1OC)N(C)[C@H]1[C@@](O)(C(=O)OC)[C@H](OC(C)=O)[C@]4(CC)C=CCN5CC[C@]31[C@@H]54)C2 [Vinorelbine] (10000 nM)"
  category: "Satisfied"
- molecule: "Cc1ccc(C(=O)N(CCCN)[C@@H](c2oc3cc(Cl)ccc3c(=O)c2Cc2ccccc2)C(C)C)cc1 (1000 nM)"
  category: "Satisfied"
- molecule: "Oc1nc(-c2ccc(C(F)(F)F)cc2)nc2c1CSCC2 [XAV-939] (10000 nM)"
  category: "Satisfied"

(Q) Report whether reported normalised viability is lower than 80% (strictly) for CCC1(c2ccc(N)cc2)CCC(=O)NC1=O (stereo not given) [Aminoglutethimide] (10000 nM)
(A) Not satisfied

(Q) Report whether reported normalised viability is lower than 80% (strictly) for N.N.[Cl][Pt][Cl] [Cisplatin] (10000 nM)
(A) Not satisfied

(Q) Report whether reported normalised viability is lower than 80% (strictly) for CN(C)/N=N/c1[nH]cnc1C(N)=O [Dacarbazine] (10000 nM)
(A) Not satisfied

(Q) Report whether reported normalised viability is lower than 80% (strictly) for COc1cc2nccc(Oc3ccc(NC(=O)C4(C(=O)Nc5ccc(F)cc5)CC4)cc3)c2cc1OC [Cabozantinib] (1000 nM)
(A) Not satisfied

----------
- Tested on: CAL-148
- measurement.protocol: normalised viability (% of control), CellTiter-Blue; higher = more viable cells (about 100 = DMSO control)
- assay.conditions: 3 nM; incubation time: 72 h
quantity.measured: normalised viability (%)
Just the number in %, nothing appended.

(Q) Identify measured normalised viability associated with CC(C)Cn1cnc2c(N)nc3ccccc3c21 [Imiquimod]
(A) 93.1

(Q) Identify measured normalised viability associated with CN(C)/N=N/c1[nH]cnc1C(N)=O [Dacarbazine]
(A) 84.4

(Q) Identify measured normalised viability associated with Clc1ccc(Nc2nnc(Cc3ccncc3)c3ccccc23)cc1 [Vatalanib]
(A) 76.1

(Q) Identify measured normalised viability associated with CCN(CCCOc1ccc2c(Nc3cc(CC(=O)Nc4cccc(F)c4)[nH]n3)ncnc2c1)CCOP(=O)(O)O [Barasertib]
(A) 105

(Q) Identify measured normalised viability associated with CCC1(c2ccc(N)cc2)CCC(=O)NC1=O (centres undefined) [Aminoglutethimide]
(A) 108

(Q) Identify measured normalised viability associated with COc1cc2nccc(Oc3ccc(NC(=O)C4(C(=O)Nc5ccc(F)cc5)CC4)cc3)c2cc1OC [Cabozantinib]
(A) 103

(Q) Identify measured normalised viability associated with COc1cc([C@@H]2c3cc4c(cc3[C@@H](O[C@@H]3O[C@@H]5CO[C@@H](C)O[C@H]5[C@H](O)[C@H]3O)[C@H]3COC(=O)[C@H]23)OCO4)cc(OC)c1O [Etoposide]
(A) 88.6

(Q) Identify measured normalised viability associated with CC(=O)Nc1ccc(C(=O)Nc2ccccc2N)cc1 [CI-994]
(A) 93.9

(Q) Identify measured normalised viability associated with Cc1ccc(-n2nc(C(C)(C)C)cc2NC(=O)Nc2ccc(OCCN3CCOCC3)c3ccccc23)cc1 [Doramapimod]
(A) 90
